The values you see were collected from patent US8394809B2.

# target_system: delta opioid receptor (Rattus norvegicus)
# Construct: the forebrains were homogenized in Tris buffer in a Teflon®-glass homogenizer; from tissue; host or cells: forebrain of male Wistar rats, particulate membrane preparation
# Sequence (P33533 whole entry): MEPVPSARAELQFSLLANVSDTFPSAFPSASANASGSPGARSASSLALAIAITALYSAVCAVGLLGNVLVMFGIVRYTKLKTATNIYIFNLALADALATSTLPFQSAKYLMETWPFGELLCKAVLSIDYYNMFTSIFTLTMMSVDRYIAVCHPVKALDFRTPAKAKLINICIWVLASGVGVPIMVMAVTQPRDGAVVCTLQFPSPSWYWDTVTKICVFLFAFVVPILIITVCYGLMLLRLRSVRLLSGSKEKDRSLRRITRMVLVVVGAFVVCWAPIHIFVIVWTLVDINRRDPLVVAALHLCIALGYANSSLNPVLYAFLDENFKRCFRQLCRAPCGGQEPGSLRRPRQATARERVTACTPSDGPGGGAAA
# measurement_protocol: Rat brain delta opioid receptor binding assay
# settings: rat forebrain membranes, ~4 nM [3H]DPDPE; read-out: δ-binding (DPDPE ligand) Ki
readout_label: pKi
Just the number, please; pKi means minus log10 of the concentration in mol/L.

COc1ccc(Oc2ncc(NC[C@H](N)CO)c(Oc3ccc(OC)cc3)n2)cc1 :: 6.46
COc1ccc(Oc2ncc(NCC3CCNC3)c(Oc3ccc(OC)cc3)n2)cc1 (racemic) :: 6.45
COc1ccc(Oc2ncc(NCC3CCCCN3)c(Oc3ccc(OC)cc3)n2)cc1 (racemic) :: 6.31
COc1ccc(Oc2ncc(NCCC3CCNCC3)c(Oc3ccc(OC)cc3)n2)cc1 :: 5.95
COc1ccc(Oc2ncc(NCCC3CCCNC3)c(Oc3ccc(OC)cc3)n2)cc1 (racemic) :: 5.95

### Prompt For the record `COc1ccc(Oc2ncc(NCc3ncc[nH]3)c(Oc3ccc(OC)cc3)n2)cc1` , what value of pKi is listed for delta opioid receptor (Rattus norvegicus)?
### Response 5.42

### Prompt For the record COc1ccc(Oc2ncc(NCC3CNCCO3)c(Oc3ccc(OC)cc3)n2)cc1 (racemic) , what value of pKi is listed for delta opioid receptor (Rattus norvegicus)?
### Response 6.14

### Prompt For the record `COc1ccc(Oc2ncc(NCc3nccs3)c(Oc3ccc(OC)cc3)n2)cc1` , what value of pKi is listed for delta opioid receptor (Rattus norvegicus)?
### Response 5.38

### Prompt For the record `COc1ccc(Nc2ncc(NC[C@@H]3CCCN3)c(Oc3ccc(OC)cc3)n2)cc1` , what value of pKi is listed for delta opioid receptor (Rattus norvegicus)?
### Response 6.44

### Prompt For the record COc1ccc(Oc2ncc(NC3CCCN(Cc4ccccc4)C3)c(Oc3ccc(OC)cc3)n2)cc1 (racemic) , what value of pKi is listed for delta opioid receptor (Rattus norvegicus)?
### Response 6.06

### Prompt For the record Fc1ccc(Oc2ncc(NCC3CCCN3)c(Oc3ccc(F)cc3)n2)cc1 (centres unmarked) , what value of pKi is listed for delta opioid receptor (Rattus norvegicus)?
### Response 6.40

### Prompt For the record COc1ccc(Oc2nc([S+]([O-])c3ccc(OC)cc3)ncc2NC[C@@H]2CCCN2)cc1 (some centres unmarked) , what value of pKi is listed for delta opioid receptor (Rattus norvegicus)?
### Response 6.56

### Prompt For the record `COc1ccc(C=Cc2ncc(NC[C@@H]3CCCN3)c(Oc3ccc(OC)cc3)n2)cc1` , what value of pKi is listed for delta opioid receptor (Rattus norvegicus)?
### Response 6.63

### Prompt For the record COc1ccc(Oc2ncc(NC3CNCCC3c3ccccc3)c(Oc3ccc(OC)cc3)n2)cc1 (centres unmarked) , what value of pKi is listed for delta opioid receptor (Rattus norvegicus)?
### Response 5.84
